Here, each record is paired with measured GI50 data.
Tested on: K562
PROTOCOL TEXT: In vitro growth inhibitory activity against human K-562 cancer cell line
Assay type: functional
Give your result in µM as a bare value.

-- ask Which value of GI50 has been reported for Brc1ccc2c(-c3nc(-c4c[nH]c5ccccc45)cs3)c[nH]c2c1 in the records?
-- reply 5.61

-- ask Which value of GI50 has been reported for c1ccc2c(-c3csc(-c4c[nH]c5ccccc45)n3)c[nH]c2c1 in the records?
-- reply 3.27

-- ask Which value of GI50 has been reported for Brc1ccc2c(-c3csc(-c4c[nH]c5cc(Br)ccc45)n3)c[nH]c2c1 in the records?
-- reply 4.69

-- ask Which value of GI50 has been reported for Brc1ccc2c(-c3csc(-c4c[nH]c5ccccc45)n3)c[nH]c2c1 in the records?
-- reply 18.8
